These data points were gathered from paper PMC6749418.

Tested on: bromodomain 1 of BRD4
Construct: made in house
ASSAY DETAILS: Thermal shift assay (TSA) with recombinant, truncated, His-tagged bromodomain 1 of BRD4
Type: binding
RUN PARAMETERS: compound at 20 μM, 1% DMSO, 4 μM protein
QUANTITY: ΔTm (°C) at 20 μM
Give bare numbers, in °C.

Check out these entries, answers already filled in.
COMPOUND | STUDY TARGET | ΔTm (°C) at 20 μM
CC1CC(=O)N(C)c2ccc(NC(=O)NCc3nc(N(C)C)no3)cc21 (centres unmarked) | bromodomain 1 of BRD4 | 0.72
CC(C)(CNc1ccc2nnc(C(F)(F)F)n2n1)c1cccnc1 | bromodomain 1 of BRD4 | 0.78
CC(C)(C)c1nnc2ccc(NCC(C)(C)c3cccnc3)nn12 | bromodomain 1 of BRD4 | 0.98
CC1(C)C(=O)Nc2ccc(C(=O)Nc3cc(Cl)c(O)cc3F)cc21 | bromodomain 1 of BRD4 | 0.39

Lookup: Report ΔTm (°C) at 20 μM, nothing else, for this compound: CCC1Oc2cc(C(C)NC(=O)Cc3c(C)nc4[nH][nH]c(=O)c4c3C)ccc2NC1=O (centres unmarked)
Found: 0.44
